# tested-target: AgBzz1-D2
# assay-text: SPOT peptide array binding signal intensity (averaged, normalized) (arbitrary units (background-subtracted, floor 0; scale differs between SH3 domains)); higher = stronger binding of the SH3 domain to the peptide
Decision: SPOT peptide array binding signal intensity compared against 20; not below it gives yes (1), below it gives no (0).

[
  {
    "binder": "DTFLPPPPPPPSNFE",
    "label": "no (0)"
  },
  {
    "binder": "TKIRRRPQQPLTDFT",
    "label": "yes (1)"
  },
  {
    "binder": "ISPPASPPPEFDFSK",
    "label": "yes (1)"
  },
  {
    "binder": "KTKQQKPAIPQKKSF",
    "label": "yes (1)"
  },
  {
    "binder": "EEEEEHPPLPARRKS",
    "label": "yes (1)"
  }
]

## Input Exam item: decide whether the reported SPOT peptide array binding signal intensity for LLGRKRPVMERVVDI is at least 20.
## Output yes (1)

## Input Exam item: decide whether the reported SPOT peptide array binding signal intensity for VDFTLPPPPPPPGLD is at least 20.
## Output no (0)

## Input Exam item: decide whether the reported SPOT peptide array binding signal intensity for VTHRLRISIPGITGR is at least 20.
## Output yes (1)

## Input Exam item: decide whether the reported SPOT peptide array binding signal intensity for KWVRRPKLMTPLTFS is at least 20.
## Output no (0)

## Input Exam item: decide whether the reported SPOT peptide array binding signal intensity for KRRAPPPVPKKPSSR is at least 20.
## Output yes (1)

## Input Exam item: decide whether the reported SPOT peptide array binding signal intensity for LLRRTIPKRPFYHVL is at least 20.
## Output yes (1)
